target.system: T1, cynomolgus monkey TLR4 expressed on stably transfected CHO-K1 cells (cynomolgus monkey, UniProt Q9TSP2 24-826 (Papio anubis entry))
T1 construct: Transfected alone; also called CHO cells expressing the cynomolgus monkey TLR4
T1 chain: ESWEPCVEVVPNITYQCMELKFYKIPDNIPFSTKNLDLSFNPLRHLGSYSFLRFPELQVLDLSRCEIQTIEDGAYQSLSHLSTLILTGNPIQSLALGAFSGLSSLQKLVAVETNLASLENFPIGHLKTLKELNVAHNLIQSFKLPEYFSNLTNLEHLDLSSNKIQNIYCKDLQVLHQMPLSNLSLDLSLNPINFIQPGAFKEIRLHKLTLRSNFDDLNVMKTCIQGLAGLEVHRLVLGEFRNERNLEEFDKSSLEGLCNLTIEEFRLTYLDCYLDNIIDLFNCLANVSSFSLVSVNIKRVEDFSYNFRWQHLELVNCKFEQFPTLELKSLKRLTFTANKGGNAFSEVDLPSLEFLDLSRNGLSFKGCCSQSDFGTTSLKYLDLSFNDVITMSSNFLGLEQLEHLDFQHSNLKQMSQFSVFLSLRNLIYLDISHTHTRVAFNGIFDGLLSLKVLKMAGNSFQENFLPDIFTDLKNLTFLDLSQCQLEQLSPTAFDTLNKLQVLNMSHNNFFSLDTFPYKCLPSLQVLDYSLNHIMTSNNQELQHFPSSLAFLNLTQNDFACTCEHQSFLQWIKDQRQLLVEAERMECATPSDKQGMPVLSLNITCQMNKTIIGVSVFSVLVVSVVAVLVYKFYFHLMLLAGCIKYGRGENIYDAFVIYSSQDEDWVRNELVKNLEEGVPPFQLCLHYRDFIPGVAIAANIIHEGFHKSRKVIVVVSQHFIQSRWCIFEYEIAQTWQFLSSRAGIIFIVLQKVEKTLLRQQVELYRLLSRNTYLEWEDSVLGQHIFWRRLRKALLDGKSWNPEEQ
protocol.summary: summary grade (species binding potential); assay not given
measured.quantity: binding result

Below are worked cases with known answers.
binder	measured.quantity	test.value
1E11.C5 antibody (IgG1) (antibody, V domains shown) VH: QVQLQESGPGLVKPSDTLSLTCAVSGYPIWGGYSWHWIRQPPGKGLEWMGYIHYSGYTDFNPSLKTRITISRDTSKNQFSLKLSSVTAVDTAVYYCARKDSGNYFPYWGQGTLVTVSS VL: EIVLTQSPDFQSVTPKEKVTITCRASQSISDHLHWYQQKPDQSPKLLIKYASHAISGVPSRFSGSGSGTDFTLTINSLEAEDAATYYCQQGHSFPLTFGGGTKVEIK	binding result	binds
1E11.C3 antibody (IgG1) (antibody, V domains shown) VH: QVQLQESGPGLVKPSDTLSLTCAVSGYPIRHGYSWHWIRQPPGKGLEWMGYIHYSGYTDFNPSLKTRITISRDTSKNQFSLKLSSVTAVDTAVYYCARKDSGNYFPYWGQGTLVTVSS VL: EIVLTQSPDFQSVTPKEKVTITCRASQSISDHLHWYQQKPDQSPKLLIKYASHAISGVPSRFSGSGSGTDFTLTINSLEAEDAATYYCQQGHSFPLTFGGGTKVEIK	binding result	binds
1E11.C2E4 antibody (IgG1) (antibody, V domains shown) VH: QVQLQESGPGLVKPSDTLSLTCAVSGYPIRFGYSWHWIRQPPGKGLEWMGYIHYSGYTDFNPSLKTRITISRDTSKNQFSLKLSSVTAVDTAVYYCARKDSGNYFPYWGQGTLVTVSS VL: EIVLTQSPDFQSVTPKEKVTITCRASQSISDHLHWYQQKPDQSPKLLIKYASHAISGVPSRFSGSGSGTDFTLTINSLEAEDAATYYCQQGYDYPLTFGGGTKVEIK	binding result	binds
1E11.E4 antibody (IgG1) (antibody, V domains shown) VH: QVQLQESGPGLVKPSDTLSLTCAVSGYSITGGYSWHWIRQPPGKGLEWMGYIHYSGYTDFNPSLKTRITISRDTSKNQFSLKLSSVTAVDTAVYYCARKDSGNYFPYWGQGTLVTVSS VL: EIVLTQSPDFQSVTPKEKVTITCRASQSISDHLHWYQQKPDQSPKLLIKYASHAISGVPSRFSGSGSGTDFTLTINSLEAEDAATYYCQQGYDYPLTFGGGTKVEIK	binding result	binds
1E11.E5 antibody (IgG1) (antibody, V domains shown) VH: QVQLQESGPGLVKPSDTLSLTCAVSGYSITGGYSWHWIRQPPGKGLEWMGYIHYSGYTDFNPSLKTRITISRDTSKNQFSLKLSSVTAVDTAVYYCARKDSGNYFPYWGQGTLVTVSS VL: EIVLTQSPDFQSVTPKEKVTITCRASQSISDHLHWYQQKPDQSPKLLIKYASHAISGVPSRFSGSGSGTDFTLTINSLEAEDAATYYCQQGYEFPLTFGGGTKVEIK	binding result	binds

Note to self: binding result recorded for 1E11.E3 antibody (IgG1) (antibody, V domains shown) VH: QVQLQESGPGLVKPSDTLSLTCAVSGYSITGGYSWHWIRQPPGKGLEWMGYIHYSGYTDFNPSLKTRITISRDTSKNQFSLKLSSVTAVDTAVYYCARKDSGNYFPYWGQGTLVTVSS VL: EIVLTQSPDFQSVTPKEKVTITCRASQSISDHLHWYQQKPDQSPKLLIKYASHAISGVPSRFSGSGSGTDFTLTINSLEAEDAATYYCQQGYDFPLTFGGGTKVEIK was binds

Field binding result (entry 1E11 antibody (IgG1 reformatted) (antibody, V domains shown, also called 1E11 Mab) VH: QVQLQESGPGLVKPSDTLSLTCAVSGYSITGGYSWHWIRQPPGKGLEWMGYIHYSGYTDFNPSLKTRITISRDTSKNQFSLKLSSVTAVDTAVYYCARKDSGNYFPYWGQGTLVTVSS VL: EIVLTQSPDFQSVTPKEKVTITCRASQSISDHLHWYQQKPDQSPKLLIKYASHAISGVPSRFSGSGSGTDFTLTINSLEAEDAATYYCQQGHSFPLTFGGGTKVEIKR ) reads binds

Entry 1E11.C4 antibody (IgG1) (antibody, V domains shown) VH: QVQLQESGPGLVKPSDTLSLTCAVSGFPIGQGYSWHWIRQPPGKGLEWMGYIHYSGYTDFNPSLKTRITISRDTSKNQFSLKLSSVTAVDTAVYYCARKDSGNYFPYWGQGTLVTVSS VL: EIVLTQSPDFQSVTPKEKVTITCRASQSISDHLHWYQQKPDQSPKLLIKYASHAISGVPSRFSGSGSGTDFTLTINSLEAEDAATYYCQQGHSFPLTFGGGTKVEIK — recorded binding result = binds
